# study_system: LEDGF/p75-HIV-1 integrase interaction (Human immunodeficiency virus type 1 group M subtype B (isolate HXB2) (HIV-1), UniProt P04585)
# experiment_summary: AlphaScreen assay of LEDGF-integrase interaction inhibition
# Format: binding
# applied_conditions: His6-tagged integrase 300 nM, flag-LEDGF/p75 100 nM; read-out: Alphascreen IC50
metric_name: IC50 (µM)
Express the result in µM but write the number alone.

CCCC(C(=O)O)c1c(C)nc2sc3c(c2c1-c1ccc(CC)cc1)CCCC3 (stereo not drawn)    74.4

Now turn to the next compound.
Give its IC50 value. Item: CCCC(C(N)=O)c1c(C)nc2sc3c(c2c1-c1ccc(C)cc1)CCCC3 (stereo not drawn)
63.7

---

# experiment_summary: Cytotoxicity in mock-infected MT-4 cells (MTT)
# Type: cell-based
# applied_conditions: human, 50% cytotoxic concentration
Each entry below carries its recorded CC50.

A selection of reference data follows.
CCCC(C(=O)O)c1c(C)nc2sc3c(c2c1-c1ccccc1F)CCCC3 (stereo not drawn) [Cpd 153]    > 125 µM
CCCC(C(=O)O)c1c(C)nc2sc3c(c2c1-c1ccc(OC)c(OC)c1)CCCC3 (stereo not drawn) [Cpd 145]    > 125 µM

Give its CC50 value. Item: Cc1ccc(-c2c(CC(=O)O)c(C)nc3sc(C)cc23)cc1 [Cpd 106]
> 125 µM

---

Each entry below carries its recorded pIC50.
# study_system: LEDGF/p75-HIV-1 integrase interaction (Human immunodeficiency virus type 1 group M subtype B (isolate HXB2) (HIV-1), UniProt P04585)
# experiment_summary: AlphaScreen assay of LEDGF-integrase interaction inhibition
# Format: binding
# applied_conditions: His6-tagged integrase 300 nM, flag-LEDGF/p75 100 nM; read-out: Alphascreen IC50
Scale: negative log10 of molar concentration, which is what pIC50 denotes.

Give its pIC50 value. Item: Cc1nc2sc3c(c2c(-c2cccnc2)c1C(OC(C)(C)C)C(=O)O)CCCC3 (stereo not drawn) [Cpd 173]
5.23

Give its pIC50 value. Item: CCCC(C(=O)O)c1c(C)nc2sccc2c1-c1ccc(C)cc1 (stereo not drawn) [Cpd 119]
5.58

Give its pIC50 value. Item: CCCC(C(=O)O)c1c(C)nc2scc(C)c2c1-c1ccc(C)cc1 (stereo not drawn) [Cpd 118]
4.63

Give its pIC50 value. Item: CCCC(C(=O)O)c1c(C)nc2sc3c(c2c1-c1ccc(Cl)cc1)CCCC3 (stereo not drawn) [Cpd 148]
5.66
